Tested on: IL-6 levels in human whole blood stimulated with a TLR2 agonist
Test: IRAK4 Whole Blood Assay (lipoteichoic acid/TLR2-stimulated IL-6)
Assay type: cell-based
Conditions: Homo sapiens, lipoteichoic acid 10 μg/mL, IL-6 readout
observation-type: EC50 (µM)

# count of solved cases: 2
Cn1cc(Nc2cc(-c3cnn4cc(Cl)cnc34)ncc2C(=O)N[C@H]2CC[C@H](C(C)(C)O)CC2)cn1
0.79
CC(F)(F)Cn1cc(Nc2cc(-c3cnn4cc(C#N)cnc34)ncc2C(=O)NC[C@@H](F)C(C)(C)O)cn1
0.22

I = CC(C)(O)[C@H](F)CNC(=O)c1cnc(-c2cnc3cc(C#N)cnn23)cc1Nc1cnn(CC(F)(F)F)c1
II = CC(=O)N[C@H](C)CCNC(=O)c1cnc(-c2cnn3cc(Cl)cnc23)cc1NC(C)C
III = CC(C)(O)[C@H](F)CNC(=O)c1cnc(-c2cnn3cc(Cl)cnc23)cc1N[C@@H]1COC[C@H]1F
## Task Please list the entries, largest EC50 first. // respond by listing labels in the order requested
## Result III, II, I

###

Target: UniProt:Q9NWZ3
Test: IRAK4 Inhibition Assay
Type: biochemical
Conditions: ATP 500 μM; IRAK4 0.6 nM
observation-type: IC50 (nM)

# count of solved cases: 2
CC(C)(O)[C@H](F)CNC(=O)c1cnc(-c2cnn3cc(C#N)cnc23)cc1Nc1cnn(CC(F)(F)F)c1 [Example 236]
3
C[C@@H](CF)Nc1cc(-c2cnc3cc(C#N)cnn23)ncc1C(=O)NC[C@@H](F)C(C)(C)O
2

1 = CC(C)(O)CCNC(=O)c1cnc(-c2cnn3cc(Cl)cnc23)cc1Nc1cnn(CC(F)F)c1
2 = COCCn1cc(Nc2cc(-c3cnn4cc(Cl)cnc34)ncc2C(=O)NC[C@@H](F)C(C)(C)O)cn1
## Task # min-compare on IC50 between 1 and 2 Answer with the label corresponding to your selection.
## Result 1

###

Biological target: IRAK4 (Homo sapiens (Human))
Sequence (Q9NWZ3 whole entry): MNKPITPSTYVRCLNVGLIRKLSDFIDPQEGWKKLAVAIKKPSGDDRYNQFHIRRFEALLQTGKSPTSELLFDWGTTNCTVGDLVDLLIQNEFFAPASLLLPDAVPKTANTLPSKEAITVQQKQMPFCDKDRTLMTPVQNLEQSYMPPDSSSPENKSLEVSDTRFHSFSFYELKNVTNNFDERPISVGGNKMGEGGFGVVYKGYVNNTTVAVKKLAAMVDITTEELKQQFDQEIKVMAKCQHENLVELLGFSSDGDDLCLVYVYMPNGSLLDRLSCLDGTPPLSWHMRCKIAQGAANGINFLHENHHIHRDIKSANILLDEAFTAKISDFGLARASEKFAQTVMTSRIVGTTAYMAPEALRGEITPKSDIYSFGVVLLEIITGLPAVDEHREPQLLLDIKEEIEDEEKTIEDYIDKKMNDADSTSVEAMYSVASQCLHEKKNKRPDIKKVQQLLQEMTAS
observation-type: IC50 (nM)

# count of solved cases: 4
CC[C@H](O)CNc1cc(-c2cnn3cc(C#N)cnc23)ncc1C(=O)NC[C@@H](F)C(C)(C)O [Example 125]
56
CCCNc1cc(-c2cnn3cc(Cl)cnc23)ncc1C(=O)NC[C@@H](F)C(C)(C)O [Example 66]
3
COc1cnn2c(-c3cc(NC(C)C)c(C(=O)NC[C@@H](F)C(C)(C)O)cn3)cnc2c1 [Example 153]
13
CC(C)(O)[C@H](F)CNC(=O)c1cnc(-c2cnn3cc(C#N)cnc23)cc1Nc1cccc(C(N)=O)c1 [Example 111]
3

1 = CC(C)Nc1cc(-c2cnc3cc(C#N)cnn23)ncc1C(=O)NCCCn1ccnc1 [Example 214]
2 = CC(C)(O)[C@H](F)CNC(=O)c1cnc(-c2cnn3cc(Cl)cnc23)cc1NC1CCC1 [Example 60]
## Task # min-compare on IC50 between 1 and 2 Answer with the label corresponding to your selection.
## Result 2

P = CC(C)(O)[C@H](F)CNC(=O)c1cnc(-c2cnn3cc(Cl)cnc23)cc1NC1CCOCC1 [Example 30]
Q = CC(C)Nc1cc(-c2cnn3cc(Cl)cnc23)ncc1C(=O)NCCC(C)(C)F [Example 20]
## Task # min-compare on IC50 between P and Q Answer with the label corresponding to your selection.
## Result P
(P: 4 nM, Q: 7 nM)
